Values from the supplement of paper PMC8149375

Consider the following molecules; for each one, report its AUC of dose-response viability curve.
Test system: TK-10
Assay: AUC of dose-response viability curve, drug alone (arbitrary (AUC of normalised viability)); higher = less growth inhibition
Settings: treatment: drug alone; 5 days
Please give only the number in your answer, with no unit.

Looking up Cn1cc(-c2ccc3nnc(C(F)(F)c4ccc5ncccc5c4)n3n2)cn1 , I found its AUC of dose-response viability curve recorded as 3.33

Looking up Cc1cc2c(C(C)C)c(O)c(O)c(C=O)c2c(O)c1-c1c(C)cc2c(C(C)C)c(O)c(O)c(C=O)c2c1O , I found its AUC of dose-response viability curve recorded as 2.36

Looking up OCCn1cc(-c2ccc3c(c2)CC/C3=N\O)c(-c2ccncc2)n1 , I found its AUC of dose-response viability curve recorded as 3.5

Looking up COc1ccc(C2=NC(c3ccc(Cl)cc3)C(c3ccc(Cl)cc3)N2C(=O)N2CCNC(=O)C2)c(OC(C)C)c1 (centres undefined) , I found its AUC of dose-response viability curve recorded as 2.99

Looking up CCOC(=O)C1=C(N)Oc2ccc(Br)cc2[C@H]1[C@H](C#N)C(=O)OCC , I found its AUC of dose-response viability curve recorded as 3.55

Looking up Cc1nc(NC(=O)N2CCC[C@H]2C(N)=O)sc1-c1ccnc(C(C)(C)C(F)(F)F)c1 , I found its AUC of dose-response viability curve recorded as 2.54

Looking up COc1cc(Nc2ncc(F)c(Nc3ccc4c(n3)N(COP(=O)([O-])[O-])C(=O)C(C)(C)O4)n2)cc(OC)c1OC.[Na+].[Na+] , I found its AUC of dose-response viability curve recorded as 2.53

Looking up O=c1cc(N2CCOCC2)oc2c(-c3ccccc3)cccc12 , I found its AUC of dose-response viability curve recorded as 2.97

Looking up C#Cc1cccc(Nc2ncnc3cc(OCCOC)c(OCCO)cc23)c1.Cl , I found its AUC of dose-response viability curve recorded as 2.29

Looking up CO[C@H]1C[C@H]2CC[C@@H](C)[C@@](O)(O2)C(=O)C(=O)N2CCCC[C@H]2C(=O)O[C@H]([C@H](C)C[C@@H]2CC[C@H](OP(C)(C)=O)[C@H](OC)C2)CC(=O)[C@H](C)/C=C(\C)[C@@H](O)[C@@H](OC)C(=O)[C@H](C)C[C@H](C)/C=C/C=C/C=C/1C (stereo in doubt) [Deforolimus (Ridaforolimus)] , I found its AUC of dose-response viability curve recorded as 2.42

Looking up CNC(=O)c1nn(C)c2c1C(C)(C)Cc1cnc(Nc3ccc(N4CCN(C)CC4)cc3)nc1-2 , I found its AUC of dose-response viability curve recorded as 2.06

Looking up COc1cc2c(Oc3ccc4[nH]c(C)cc4c3F)ncnc2cc1OCCCN1CCCC1 , I found its AUC of dose-response viability curve recorded as 2.62

Looking up Nc1cccc2c1C(=O)N(C1CCC(=O)NC1=O)C2=O (centres undefined) [Pomalidomide] , I found its AUC of dose-response viability curve recorded as 3.12

Looking up O=C(NCCCNc1nc(Nc2cccc(NC(=O)N3CCCC3)c2)ncc1I)c1cccs1 , I found its AUC of dose-response viability curve recorded as 2.59
